# measurement protocol: Rat pharmacokinetic study, second study (dose response)
# Type: in vivo, rats
# test conditions: plasma, po; rat p.o. 10 mg/kg, second study, 0 h; read-out: plasma indibulin
# Procedure: The second study was designed to determine the dose response of indibulin plasma concentration with the 10% A SDD formulation. In general, 10% A SDD was administered p.o. at 10, 15 and 20 mg/kg and plasma indibulin concentrations were determined at several time points. All rats used in the second study were fasted 12 hours prior to dose, and food was returned 4 hours post dose. […] The plasma was decanted into labeled Eppendorfs and stored at −80° C. until analyzed by HPLC with MS/MS Detection. […]
assay metric: concentration at 0 h (ng/mL)
# number only, unit ng/mL dropped from output

Would you kindly share the measured concentration at 0 h for O=C(Nc1ccncc1)C(=O)c1cn(Cc2ccc(Cl)cc2)c2ccccc12 ?
0

* * *

# measurement protocol: Rat pharmacokinetic study, first study
# Assay type: in vivo, rats (Sprague Dawley, male)
# test conditions: male, Sprague-Dawley, plasma, po; First Study, rat p.o. 10 mg/kg (60 mg/m^2)
assay metric: Tmax (h)
Output spec: scalar in h, unitless text.

I have this compound here, O=C(Nc1ccncc1)C(=O)c1cn(Cc2ccc(Cl)cc2)c2ccccc12 , and I need its recorded Tmax.
2

* * *

# measurement protocol: Rat pharmacokinetic study, second study (dose response)
# Assay type: in vivo, rats
# test conditions: plasma, po; rat p.o. 10 mg/kg, second study, 0.5 h; read-out: plasma indibulin
assay metric: concentration at 0.5 h (ng/mL)
Give the quantity in ng/mL, number only.

Field request: concentration at 0.5 h | item: O=C(Nc1ccncc1)C(=O)c1cn(Cc2ccc(Cl)cc2)c2ccccc12
2

* * *

# measurement protocol: Rat pharmacokinetic study, second study (dose response)
# Assay type: in vivo, rats
# test conditions: plasma, po; Second Study, rat p.o. 10 mg/kg (60 mg/m^2)
assay metric: Tmax (h)
Respond with the bare value in h.

Query (compound): O=C(Nc1ccncc1)C(=O)c1cn(Cc2ccc(Cl)cc2)c2ccccc12 ; field requested: Tmax
2

* * *

# measurement protocol: Rat pharmacokinetic study, second study (dose response)
# Type: in vivo, rats
# test conditions: plasma, po; rat p.o. 15 mg/kg, second study, 6 h; read-out: plasma indibulin
assay metric: concentration at 6 h (ng/mL)
Give the number; ng/mL is assumed, so skip it.

What concentration at 6 h value was documented for this compound, O=C(Nc1ccncc1)C(=O)c1cn(Cc2ccc(Cl)cc2)c2ccccc12 ?
7

* * *

# measurement protocol: Rat pharmacokinetic study, second study (dose response)
# Assay type: in vivo, rats
# test conditions: plasma, po; rat p.o. 20 mg/kg, second study, 0.5 h; read-out: plasma indibulin
assay metric: concentration at 0.5 h (ng/mL)
Provide only the numeric value, understood in ng/mL.

Report concentration at 0.5 h for O=C(Nc1ccncc1)C(=O)c1cn(Cc2ccc(Cl)cc2)c2ccccc12 [Bulk Crystalline Drug, indibulin] please.
9

* * *

# measurement protocol: Rat pharmacokinetic study, second study (dose response)
# Format: in vivo, rats
# test conditions: plasma, po; rat p.o. 10 mg/kg, second study, 10 h; read-out: plasma indibulin
# Protocol: The second study was designed to determine the dose response of indibulin plasma concentration with the 10% A SDD formulation. In general, 10% A SDD was administered p.o. at 10, 15 and 20 mg/kg and plasma indibulin concentrations were determined at several time points. All rats used in the second study were fasted 12 hours prior to dose, and food was returned 4 hours post dose. […] The plasma was decanted into labeled Eppendorfs and stored at −80° C. until analyzed by HPLC with MS/MS Detection. […]
assay metric: concentration at 10 h
Reply with the number and its unit after it.

Name the reported concentration at 10 h value associated with the molecule O=C(Nc1ccncc1)C(=O)c1cn(Cc2ccc(Cl)cc2)c2ccccc12
2 ng/mL
